Molecular target: KRAS WT (Homo sapiens (Human), UniProt P01116+P62937)
Sequence (P01116 other isoform, or with tags, fused parts or gaps): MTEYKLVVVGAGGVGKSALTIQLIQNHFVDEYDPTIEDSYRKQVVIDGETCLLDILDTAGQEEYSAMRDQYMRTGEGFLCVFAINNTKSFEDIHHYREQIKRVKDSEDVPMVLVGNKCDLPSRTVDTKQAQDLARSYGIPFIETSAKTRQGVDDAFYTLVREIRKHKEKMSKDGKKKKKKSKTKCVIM
Sequence (P62937 whole entry): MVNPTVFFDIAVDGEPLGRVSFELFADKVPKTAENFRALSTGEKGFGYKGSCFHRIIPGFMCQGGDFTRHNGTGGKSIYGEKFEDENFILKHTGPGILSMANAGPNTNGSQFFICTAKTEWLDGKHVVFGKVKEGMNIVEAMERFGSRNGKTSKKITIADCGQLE
Assay: Ras-Raf disruption/FRET/MOA assay (BRAF RBD, Cyclophilin A)
Format: biochemical
Conditions: read-out: KRAS WT FRET data IC50

{"SMI": "CCn1c(-c2cc(N3CCN(C)CC3)cnc2[C@H](C)OC)c2c3cc(ccc31)-c1csc(n1)C[C@H](NC(=O)[C@H](C(C)C)N(C)C(=O)[C@@H]1CCCS1(=O)=O)C(=O)N1CCC[C@H](N1)C(=O)OCC(C)(C)C2", "ASSAY_TARGET": "KRAS WT (Homo sapiens (Human), UniProt P01116+P62937)", "IC50": "100 to 1000 nM"}
{"SMI": "CCn1c(-c2cccnc2[C@H](C)OC)c2c3cc(ccc31)-c1cc(O)cc(c1)C[C@H](NC(=O)C(=C(C)C)N(C)C(C)=O)C(=O)N1CCC[C@H](N1)C(=O)OCC(C)(C)C2", "ASSAY_TARGET": "KRAS WT (Homo sapiens (Human), UniProt P01116+P62937)", "IC50": "1000 to 10000 nM"}
{"SMI": "CCn1c(-c2cccnc2[C@H](C)OC)c2c3cc(ccc31)-c1cccc(c1)C[C@H](NC(=O)[C@H](C(C)C)N(C)C(=O)N1CC(OC)C1)C(=O)N1CCC[C@H](N1)C(=O)OCC(C)(C)C2", "ASSAY_TARGET": "KRAS WT (Homo sapiens (Human), UniProt P01116+P62937)", "IC50": "100 to 1000 nM"}
{"SMI": "CCn1c(-c2cnccc2COC)c2c3cc(ccc31)-c1cc(O)cc(c1)C[C@H](NC(=O)[C@@H](OC(=O)N1CCCC1)C(C)C)C(=O)N1CCC[C@H](N1)C(=O)OCC(C)(C)C2", "ASSAY_TARGET": "KRAS WT (Homo sapiens (Human), UniProt P01116+P62937)", "IC50": "1000 to 10000 nM"}
{"SMI": "CCn1c(-c2cccnc2[C@H](C)OC)c2c3cc(ccc31)-c1csc(n1)C[C@H](NC(=O)[C@H](C(C)C)N(C)C(=O)N1CC3(CN(C)C3)C1)C(=O)N1CCC[C@H](N1)C(=O)OCC(C)(C)C2", "ASSAY_TARGET": "KRAS WT (Homo sapiens (Human), UniProt P01116+P62937)", "IC50": "100 to 1000 nM"}
